target_or_system: Fuc(a1-2)[Gal(a1-4)]Gal(b1-4)GlcNAc
assay: glycan array binding signal (z-score within array); higher = stronger binding
details: glycan notation: IUPAC condensed, linker removed
Shown is part of a subset that was picked to be rich in the strongest signals.
measurement_name: glycan array binding signal (z-score)
// return a plain number; no unit text

Give the measured glycan array binding signal (z-score) of AT1G15820(2) (Arabidopsis thaliana), Q9LMQ2 (protein) MAMAVSGAVLSGLGSSFLTGGKRGATALASGVGTGAQRVGRKTLIVAAAAAQPKKSWIPAVKGGGNFLDPEWLDGSLPGDFGFDPLGLGKDPAFLKWYREAELIHGRWAMAAVLGIFVGQAWSGVAWFEAGAQPDAIAPFSFGSLLGTQLLLMGWVESKRWVDFFNPDSQSVEWATPWSKTAENFANYTGDQGYPGGRFFDPLGLAGKNRDGVYEPDFEKLERLKLAEIKHSRLAMVAMLIFYFEAGQGKTPLGALGL .
1.93

// same read-out, input: Adiponectin (Rattus norvegicus), Q8K3R4 (protein) MLLLQALLFLLILPSHEGITATEGPGALVPPPKETCAGWMAGIPGYPGHNGIPGRDGRDGTPGEKGEKGDAGVLGPKGDPGDAGMTGAEGPRGFPGTPGRKGEPGEAAYMYHSAFSVGLETRVTVPNVPIRFTKIFYNQQNHYDGSTGKFHCNIPGLYYFSYHITVYMKDVKVSLFKKDKAVLFTYDQYQEKNVDQASGSMLLHLEVGDQVWLQVYGEGDNNGLYADNVNDSTFTGFLLYHDTN
-0.75

// same read-out, input: SIGNR8 (Mus musculus) (protein) MAGEPEFHQSKNHEEEVTSGEQGFAEHDPEGLICSSKSLQGHLTQVPWLLLLLISLGLFLLMLATLVQVSRIRAYSQGQTQDQQGSSSLDKVAVPREQTHSGLEQIQQIQQQLTQFNASLAGLCRPCPWDWELFQGSCYLFSRTLGSWETSASSCEDLGAHLVIVNSVSEQRFMKYWNVRKNQRSWIGLSDHIHEGSWQWVDGSALKFSFWKEGEPNNDGDEDCVELFMDDWNDNKCTEQNFWVCEQPSAPCPHH
3.32
